- system: HLA-A*02:02
- experimental.protocol: IEDB peptide-MHC binding, purified MHC/competitive/radioactivity; bounds were set here for any values at or beyond the usual limits of such assays
- condition.context: source organism: Vaccinia virus WR
Quick rule for you: IC50 under 100 nM gets 1.0, anything else gets 0.0.

- entry.sequence: "AADLTQIFEV"
  system: "HLA-A*02:02"
  qualitative.label: 0.0
- entry.sequence: "IQYRQQLELA"
  system: "HLA-A*02:02"
  qualitative.label: 0.0
- entry.sequence: "IVDKFGKNHI"
  system: "HLA-A*02:02"
  qualitative.label: 0.0
- entry.sequence: "GTKGKLYIA"
  system: "HLA-A*02:02"
  qualitative.label: 0.0
- entry.sequence: "QLFKYVPSA"
  system: "HLA-A*02:02"
  qualitative.label: 1.0
- entry.sequence: "KIIAVFDSKL"
  system: "HLA-A*02:02"
  qualitative.label: 1.0
- entry.sequence: "VLEKKVCAIT"
  system: "HLA-A*02:02"
  qualitative.label: 0.0
- entry.sequence: "IVTFINDYA"
  system: "HLA-A*02:02"
  qualitative.label: 0.0
- entry.sequence: "ILQMREIIT"
  system: "HLA-A*02:02"
  qualitative.label: 0.0
- entry.sequence: "YLYNKYSFKL"
  system: "HLA-A*02:02"
  qualitative.label: 1.0
- entry.sequence: "DINESMSQMV"
  system: "HLA-A*02:02"
  qualitative.label: 0.0
- entry.sequence: "NIVTDLENRL"
  system: "HLA-A*02:02"
  qualitative.label: 0.0
- entry.sequence: "FTNSQIFNI"
  system: "HLA-A*02:02"
  qualitative.label: 1.0
- entry.sequence: "NIGCAVNTPV"
  system: "HLA-A*02:02"
  qualitative.label: 0.0
- entry.sequence: "CTINVNSLAL"
  system: "HLA-A*02:02"
  qualitative.label: 0.0
- entry.sequence: "SISEINEWL"
  system: "HLA-A*02:02"
  qualitative.label: 1.0
- entry.sequence: "SISSVLTIL"
  system: "HLA-A*02:02"
  qualitative.label: 1.0
- entry.sequence: "SMKGENVFI"
  system: "HLA-A*02:02"
  qualitative.label: 1.0
- entry.sequence: "IIPFIAYFVL"
  system: "HLA-A*02:02"
  qualitative.label: 0.0
- entry.sequence: "YVSVMNFIPI"
  system: "HLA-A*02:02"
  qualitative.label: 0.0
- entry.sequence: "LIYDDNIDSI"
  system: "HLA-A*02:02"
  qualitative.label: 0.0
- entry.sequence: "NTVGMSIVCI"
  system: "HLA-A*02:02"
  qualitative.label: 0.0
- entry.sequence: "FLLPLTSLVI"
  system: "HLA-A*02:02"
  qualitative.label: 1.0
- entry.sequence: "ATICLKNEGV"
  system: "HLA-A*02:02"
  qualitative.label: 0.0
- entry.sequence: "EAAAATCALV"
  system: "HLA-A*02:02"
  qualitative.label: 0.0
- entry.sequence: "HMYRGGNGNT"
  system: "HLA-A*02:02"
  qualitative.label: 0.0
- entry.sequence: "VLQQNNSFII"
  system: "HLA-A*02:02"
  qualitative.label: 0.0
- entry.sequence: "IMTSTRTIIL"
  system: "HLA-A*02:02"
  qualitative.label: 0.0
- entry.sequence: "STISWMMKL"
  system: "HLA-A*02:02"
  qualitative.label: 1.0
- entry.sequence: "FMSHVKSVT"
  system: "HLA-A*02:02"
  qualitative.label: 0.0
- entry.sequence: "ALKNSQAEL"
  system: "HLA-A*02:02"
  qualitative.label: 1.0
- entry.sequence: "LINLVQYRIL"
  system: "HLA-A*02:02"
  qualitative.label: 0.0
- entry.sequence: "IVSLCPTKKL"
  system: "HLA-A*02:02"
  qualitative.label: 1.0
- entry.sequence: "LVSDCASTI"
  system: "HLA-A*02:02"
  qualitative.label: 1.0
- entry.sequence: "GMQFDKVYL"
  system: "HLA-A*02:02"
  qualitative.label: 1.0
- entry.sequence: "FMYTKHSML"
  system: "HLA-A*02:02"
  qualitative.label: 1.0
- entry.sequence: "KLYGYASLT"
  system: "HLA-A*02:02"
  qualitative.label: 1.0
- entry.sequence: "ALCKVTVPT"
  system: "HLA-A*02:02"
  qualitative.label: 0.0
- entry.sequence: "SLIYYQNEVT"
  system: "HLA-A*02:02"
  qualitative.label: 1.0
- entry.sequence: "RVTTELNIV"
  system: "HLA-A*02:02"
  qualitative.label: 0.0
- entry.sequence: "ITLILSNKLL"
  system: "HLA-A*02:02"
  qualitative.label: 0.0
- entry.sequence: "LIKTLSPAHL"
  system: "HLA-A*02:02"
  qualitative.label: 0.0
- entry.sequence: "SLVYGIRCV"
  system: "HLA-A*02:02"
  qualitative.label: 0.0
- entry.sequence: "VQTLISLNSM"
  system: "HLA-A*02:02"
  qualitative.label: 0.0
- entry.sequence: "FIQWTGGNI"
  system: "HLA-A*02:02"
  qualitative.label: 0.0
- entry.sequence: "CVDHPFIYV"
  system: "HLA-A*02:02"
  qualitative.label: 0.0
- entry.sequence: "DTSNNIAEYI"
  system: "HLA-A*02:02"
  qualitative.label: 0.0
- entry.sequence: "YLYTEYFLFL"
  system: "HLA-A*02:02"
  qualitative.label: 1.0
- entry.sequence: "GLLDSIKMI"
  system: "HLA-A*02:02"
  qualitative.label: 1.0
- entry.sequence: "YVILKDPRI"
  system: "HLA-A*02:02"
  qualitative.label: 0.0
- entry.sequence: "YLRGHTESI"
  system: "HLA-A*02:02"
  qualitative.label: 1.0
- entry.sequence: "ITHTNITTLL"
  system: "HLA-A*02:02"
  qualitative.label: 0.0
- entry.sequence: "LIAGIILLIL"
  system: "HLA-A*02:02"
  qualitative.label: 0.0
- entry.sequence: "HLRASTTENA"
  system: "HLA-A*02:02"
  qualitative.label: 0.0
- entry.sequence: "NVDIIDLLL"
  system: "HLA-A*02:02"
  qualitative.label: 0.0
- entry.sequence: "TLFYCDERDA"
  system: "HLA-A*02:02"
  qualitative.label: 0.0
- entry.sequence: "VQSVLRDISI"
  system: "HLA-A*02:02"
  qualitative.label: 1.0
- entry.sequence: "FVTDYVHEGV"
  system: "HLA-A*02:02"
  qualitative.label: 1.0
- entry.sequence: "ILYYGANGST"
  system: "HLA-A*02:02"
  qualitative.label: 0.0
- entry.sequence: "SLEATFIDV"
  system: "HLA-A*02:02"
  qualitative.label: 1.0
- entry.sequence: "RLRQDTEDIV"
  system: "HLA-A*02:02"
  qualitative.label: 0.0
- entry.sequence: "CVSNLDISSV"
  system: "HLA-A*02:02"
  qualitative.label: 1.0
- entry.sequence: "IASSMKGENV"
  system: "HLA-A*02:02"
  qualitative.label: 0.0
- entry.sequence: "PASISSVLTI"
  system: "HLA-A*02:02"
  qualitative.label: 0.0
- entry.sequence: "ILRNYLRLYI"
  system: "HLA-A*02:02"
  qualitative.label: 1.0
- entry.sequence: "RILSEKRKDT"
  system: "HLA-A*02:02"
  qualitative.label: 0.0
- entry.sequence: "TIAVSVYGAI"
  system: "HLA-A*02:02"
  qualitative.label: 0.0
- entry.sequence: "TLFIDRGSI"
  system: "HLA-A*02:02"
  qualitative.label: 0.0
- entry.sequence: "ITDNGPMPYM"
  system: "HLA-A*02:02"
  qualitative.label: 0.0
- entry.sequence: "NLYISDYKM"
  system: "HLA-A*02:02"
  qualitative.label: 0.0
- entry.sequence: "TIVSRSSRGV"
  system: "HLA-A*02:02"
  qualitative.label: 0.0
- entry.sequence: "FVLALYSPPL"
  system: "HLA-A*02:02"
  qualitative.label: 1.0
- entry.sequence: "LINLVQYRI"
  system: "HLA-A*02:02"
  qualitative.label: 0.0
- entry.sequence: "FTILEYLYIM"
  system: "HLA-A*02:02"
  qualitative.label: 0.0
- entry.sequence: "NLYKVYNGI"
  system: "HLA-A*02:02"
  qualitative.label: 0.0
- entry.sequence: "SVGTGILFM"
  system: "HLA-A*02:02"
  qualitative.label: 0.0
- entry.sequence: "STVDVRNIVT"
  system: "HLA-A*02:02"
  qualitative.label: 0.0
- entry.sequence: "IINSVSIILA"
  system: "HLA-A*02:02"
  qualitative.label: 0.0
- entry.sequence: "SLVITYCLVT"
  system: "HLA-A*02:02"
  qualitative.label: 0.0
- entry.sequence: "IAVANCVRNL"
  system: "HLA-A*02:02"
  qualitative.label: 1.0
- entry.sequence: "VQEFIFSAL"
  system: "HLA-A*02:02"
  qualitative.label: 0.0
- entry.sequence: "ALINLVQYRI"
  system: "HLA-A*02:02"
  qualitative.label: 1.0
- entry.sequence: "SAEVERLMEL"
  system: "HLA-A*02:02"
  qualitative.label: 0.0
- entry.sequence: "ILEYLYIMRV"
  system: "HLA-A*02:02"
  qualitative.label: 1.0
- entry.sequence: "PISDYSAEV"
  system: "HLA-A*02:02"
  qualitative.label: 0.0
- entry.sequence: "NITPDDGLGL"
  system: "HLA-A*02:02"
  qualitative.label: 0.0
- entry.sequence: "DVERLQMAGV"
  system: "HLA-A*02:02"
  qualitative.label: 0.0
